Assay: T. gondii growth inhibition with IFN-gamma, primary screen, cell-based (AID 1259416);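 also: host cells are HeLa cells infected with Toxoplasma gondii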
Settings: Toxoplasma gondii growth in IFN-gamma-treated host cells; concentration not given here
In all, about 69,000 compounds went through this assay and about 2,600 (3.8%) were called active. Rule as the data show it: active = activity change below about -70% (passing the limit was not always enough); inconclusive = no clear call, values can overlap the other calls. The full list was thinned out, with actives kept by preference.
Classes used: active, inactive

[
  {
    "Molecule": "COc1ccc(Br)cc1-c1nc(Cn2nnc(C(=O)Nc3cc(F)ccc3C)c2C)c(C)o1",
    "Category label": "inactive"
  },
  {
    "Molecule": "Cc1ccc(Cl)cc1NC(=O)c1nnn(Cc2nc(-c3cccc(Cl)c3)oc2C)c1C",
    "Category label": "inactive"
  },
  {
    "Molecule": "Cc1cccc(C)c1-c1c(-c2ccccc2)ncn1CCCCN",
    "Category label": "inactive"
  },
  {
    "Molecule": "CCC(=O)Nc1ccc(-c2nc(Cn3cccn3)c(C)o2)cc1",
    "Category label": "inactive"
  },
  {
    "Molecule": "Cc1cccc(CNC(=O)c2nc(Nc3cccc(C)c3)c3ccccc3n2)c1",
    "Category label": "active"
  },
  {
    "Molecule": "Nc1cc(C(F)(F)F)c(-c2cc(N3CCOCC3)nc(N3CCOCC3)n2)cn1",
    "Category label": "active"
  },
  {
    "Molecule": "COc1ccc(-c2nc(Cn3nnc(C(=O)Nc4ccccc4C)c3C)c(C)o2)c(OC)c1",
    "Category label": "inactive"
  },
  {
    "Molecule": "CCN(CC)C(=O)[C@@H]1C[C@H](N)CN1C(=O)Cc1ccc(F)c(C)c1",
    "Category label": "inactive"
  },
  {
    "Molecule": "CC(=O)c1c(C)nn(CCC(=O)N2CCC(c3ccccc3C(=O)O)C2)c1C (stereo unspecified)",
    "Category label": "inactive"
  },
  {
    "Molecule": "O=C(Oc1ccc(Cl)cc1)c1snnc1-c1ccccc1",
    "Category label": "active"
  },
  {
    "Molecule": "CC(C(=O)NC1CC1)N1CCc2[nH]nc(-c3ccc(-c4ccccc4)cc3)c2C1 (stereo unspecified)",
    "Category label": "inactive"
  },
  {
    "Molecule": "O=C(O)c1ccc(NC(=S)NCc2cccs2)cc1",
    "Category label": "inactive"
  },
  {
    "Molecule": "COC(=O)c1c(NCc2c(C)noc2C)c2cccc(Cl)c2[nH]c1=O",
    "Category label": "inactive"
  },
  {
    "Molecule": "COc1cccc(CNC(=O)Nc2ccc(-c3nc(-c4cc(C)ccc4C)co3)cc2)c1",
    "Category label": "inactive"
  },
  {
    "Molecule": "O=C(NCc1cccc(Br)c1)c1nc(Nc2ccc(F)cc2)c2ccccc2n1",
    "Category label": "inactive"
  },
  {
    "Molecule": "COc1cc(NC(=O)Nc2cccc(CNC(=O)O[C@H]3CCOC3)c2)ccc1-c1cnco1",
    "Category label": "active"
  },
  {
    "Molecule": "Cc1cc(-c2ccccc2CN2CCOCC2)ccc1NC(=O)c1cccnc1",
    "Category label": "inactive"
  },
  {
    "Molecule": "COc1ccc(NC(=O)c2cccc(CN3C[C@@H](C)O[C@@H](C)C3)c2)cc1",
    "Category label": "inactive"
  },
  {
    "Molecule": "CC[C@H]1CN(C(=O)CCc2cnccn2)CC[C@@]1(C)O",
    "Category label": "inactive"
  },
  {
    "Molecule": "CCn1c(=O)c(-c2nc(-c3ccc(F)c(Cl)c3)no2)c(O)c2ccccc21",
    "Category label": "inactive"
  },
  {
    "Molecule": "COc1cccc(NC(=O)Nc2ccc3c(c2)C(=O)N(C)C[C@@H](OC)[C@H](C)CN(CC2CC2)[C@H](C)CO3)c1",
    "Category label": "inactive"
  }
]

###

Experiment: T. gondii growth inhibition with IFN-gamma, primary screen, cell-based (AID 1259416);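 also: host cells are HeLa cells infected with Toxoplasma gondii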
Conditions: Toxoplasma gondii growth in IFN-gamma-treated host cells; stronger effect = lower value; concentration not given here
Out of some 69,000 compounds screened, about 2,600 (3.8%) were called active. What follows is part of a selection rich in actives, with near analogues and random picks from the rest.
Observed property: activity change, negative = inhibition (%)

[
  {
    "Compound": "Cc1cccc(OC2CCN(C(=O)c3ccc(OCc4nonc4C)cc3)CC2)c1",
    "Test value": -46.1
  },
  {
    "Compound": "COc1ccc(NS(=O)(=O)c2ccc(NC(=S)NC(=O)c3cccs3)cc2)nn1",
    "Test value": 1.98
  },
  {
    "Compound": "CCCc1nc(C)c(CNC(=O)C2CCOC2)s1 (stereo not given)",
    "Test value": -2.34
  },
  {
    "Compound": "CCOc1ccccc1NC(=O)OC1CCCN1C(=O)NCc1ccccc1 (stereo not given)",
    "Test value": -2.55
  },
  {
    "Compound": "Cc1ncc(C(=O)NCCCn2ccc3ccccc32)c(C)n1",
    "Test value": 2.92
  }
]

Reference source for all entries: PubChem BioAssay AID1259416
